Recorded values, source patent US8927500B2.

# assayed-system: MDMX (Homo sapiens)
# assay-notes: Competitive fluorescence polarization assay for MDMX
# Type: binding
# condition-label: competitive FP assay, read-out: IC50 (MDMX)
Where a SMILES comes first, the peptide text is derived from it. Bridges are numbered along the chain shown (N, C = ends). [ ]: non-standard residue; d: D form. R8 = C=CCCCCCC[C@@](C)(N)C(=O)O; Cba = N[C@@H](CC1CCC1)C(=O)O; S5 = C=CCCC[C@](C)(N)C(=O)O; Nle = CCCC[C@H](N)C(=O)O
IC50 for assorted compounds

- CCCC[C@H](NC(=O)[C@H](C)NC(=O)[C@H](C)NC(=O)[C@]1(C)CCCC=CCCCCCC[C@@](C)(NC(=O)[C@H](Cc2ccccc2)NC(=O)[C@@H](NC(=O)[C@H](CC(C)C)NC(C)=O)[C@@H](C)O)C(=O)N[C@@H](C)C(=O)N[C@@H](Cc2ccc(O)cc2)C(=O)N[C@@H](Cc2c[nH]c3ccccc23)C(=O)N[C@@H](C)C(=O)N[C@@H](CCC(N)=O)C(=O)N[C@@H](CC2CCC2)C(=O)N1)C(=O)N[C@@H](C)C(N)=O [compound 236] (Ac-LTF[R8]AYWAQ[Cba][S5]AA[Nle]A-NH2; staple 4-11): 100 to 1000 nM

From here, focus on the item given below.
Ask | Request the reported IC50 associated with C=CCCCCCC[C@@](C)(NC(=O)[C@H](Cc1ccccc1)NC(=O)[C@@H](NC(=O)[C@H](CC(C)C)NC(C)=O)[C@@H](C)O)C(=O)N[C@@H](C)C(=O)N[C@@H](Cc1ccc(O)cc1)C(=O)N[C@@H](Cc1c[nH]c2ccccc12)C(=O)N[C@@H](C)C(=O)N[C@@H](CCC(N)=O)C(=O)N[C@@H](CC(C)C)C(=O)N[C@@](C)(CCCC=C)C(=O)N[C@@H](C)C(=O)N[C@@H](C)C(=O)N[C@@H](CCCC)C(=O)N[C@@H](C)C(N)=O
Reply | > 1000 nM

----------
Listing of recorded IC50 by entry.
# assayed-system: MDMX (Homo sapiens, UniProt O15151)
# Sequence (O15151 1-125): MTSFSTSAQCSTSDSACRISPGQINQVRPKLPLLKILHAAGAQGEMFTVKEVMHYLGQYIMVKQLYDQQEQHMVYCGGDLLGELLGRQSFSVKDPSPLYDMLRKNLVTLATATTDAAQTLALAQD
# assay-notes: Competitive fluorescence polarization assay for MDMX
# Type: binding
# condition-label: competitive FP assay, read-out: IC50 (MDMX)
Where a SMILES comes first, the peptide text is derived from it. Bridges are numbered along the chain shown (N, C = ends). [ ]: non-standard residue; d: D form. Trp(6-Cl) = N[C@@H](Cc1c[nH]c2cc(Cl)ccc12)C(=O)O; R8 = C=CCCCCCC[C@@](C)(N)C(=O)O; Cba = N[C@@H](CC1CCC1)C(=O)O; S5 = C=CCCC[C@](C)(N)C(=O)O; Nle = CCCC[C@H](N)C(=O)O

Reference set, count: 3
• CC(=O)N[C@@H](Cc1ccccc1)C(=O)N[C@]1(C)CCCCCCC=CCCC[C@@](C)(C(=O)N[C@@H](C)C(=O)N[C@@H](C)C(=O)N[C@@H](C)C(=O)N[C@@H](C)C(=O)N[C@@H](C)C(=O)N[C@@H](C)C(=O)N[C@H](C)C(N)=O)NC(=O)[C@H](CC(C)C)NC(=O)[C@H](C)NC(=O)[C@H](CCC(=O)O)NC(=O)[C@H](Cc2c[nH]c3cc(Cl)ccc23)NC(=O)[C@H](Cc2ccc(O)cc2)NC(=O)[C@H](C)NC1=O [compound 339] (Ac-F[R8]AY[Trp(6-Cl)]EAL[S5]AAAAAA[dA]-NH2; staple 2-9) = 100 to 1000 nM
• CCCC[C@H](NC(=O)[C@H](Cc1c[nH]c2ccccc12)NC(=O)[C@H](C)NC(=O)[C@]1(C)CCCC=CCCCCCC[C@@](C)(NC(=O)[C@H](Cc2ccccc2)NC(=O)[C@@H](NC(=O)[C@H](CCC(=O)O)NC(C)=O)[C@@H](C)O)C(=O)N[C@@H](C)C(=O)N[C@@H](Cc2ccc(O)cc2)C(=O)N[C@@H](Cc2c[nH]c3ccccc23)C(=O)N[C@@H](C)C(=O)N[C@@H](CCC(N)=O)C(=O)N[C@@H](CC2CCC2)C(=O)N1)C(=O)N[C@@H](C)C(N)=O [compound 240] (Ac-ETF[R8]AYWAQ[Cba][S5]AW[Nle]A-NH2; staple 4-11) = 100 to 1000 nM
• CCCC[C@H](NC(=O)[C@H](C)NC(=O)[C@H](C)NC(=O)[C@]1(C)CCCC=CCCCCCC[C@@](C)(NC(=O)[C@H](Cc2ccccc2)NC(=O)[C@@H](NC(=O)[C@H](CC(C)C)NC(C)=O)[C@@H](C)O)C(=O)N[C@@H](CCC(=O)O)C(=O)N[C@@H](Cc2ccc(O)cc2)C(=O)N[C@@H](Cc2c[nH]c3ccccc23)C(=O)N[C@@H](C)C(=O)N[C@@H](CCC(N)=O)C(=O)N[C@@H](CC2CCC2)C(=O)N1)C(=O)N[C@@H](C)C(N)=O [compound 238] (Ac-LTF[R8]EYWAQ[Cba][S5]AA[Nle]A-NH2; staple 4-11) = 10 to 100 nM

Ask | Please look up its IC50: CC(=O)N[C@@H](CC(C)C)C(=O)N[C@H](C(=O)N[C@@H](Cc1ccccc1)C(=O)N[C@]1(C)CCCCCCC=CCCC[C@@](C)(C(=O)N[C@@H](CO)C(=O)N[C@@H](C)C(=O)N[C@@H](CC(C)C)C(N)=O)NC(=O)[C@H](CC(C)C)NC(=O)[C@H](CCC(N)=O)NC(=O)[C@H](C)NC(=O)[C@H](Cc2c[nH]c3ccccc23)NC(=O)[C@H](Cc2ccc(O)cc2)NC(=O)[C@H](C)NC1=O)[C@@H](C)O [compound 4] (Ac-LTF[R8]AYWAQL[S5]SAL-NH2; staple 4-11)
Reply | 100 to 1000 nM

----------
# assayed-system: MDM2 (Homo sapiens, UniProt Q00987)
# Sequence (Q00987 1-125): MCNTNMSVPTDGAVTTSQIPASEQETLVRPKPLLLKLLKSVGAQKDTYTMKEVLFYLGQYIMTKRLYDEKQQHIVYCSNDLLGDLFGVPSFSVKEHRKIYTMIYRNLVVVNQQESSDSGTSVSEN
# assay-notes: Competitive fluorescence polarization assay for MDM2
# Assay type: binding
# condition-label: competitive FP assay, MDM2; read-out: IC50 (MDM2)
Where a SMILES comes first, the peptide text is derived from it. Bridges are numbered along the chain shown (N, C = ends). [ ]: non-standard residue; d: D form. R8 = C=CCCCCCC[C@@](C)(N)C(=O)O; S5 = C=CCCC[C@](C)(N)C(=O)O; Nle = CCCC[C@H](N)C(=O)O
metric-name: IC50

Ask | # IC50 lookup, item CCCC[C@H](NC(=O)[C@H](C)NC(=O)[C@H](C)NC(=O)[C@]1(C)CCCC=CCCCCCC[C@@](C)(NC(=O)[C@H](Cc2ccccc2)NC(=O)[C@@H](NC(=O)[C@H](CC(C)C)NC(C)=O)[C@@H](C)O)C(=O)N[C@@H](CCC(=O)O)C(=O)N[C@@H](Cc2ccc(O)cc2)C(=O)N[C@@H](Cc2c[nH]c3ccccc23)C(=O)N[C@@H](C)C(=O)N[C@@H](CCC(N)=O)C(=O)N[C@@H](CC(C)C)C(=O)N1)C(=O)N[C@@H](C)C(=O)N[C@@H](C)C(N)=O [compound 377] (Ac-LTF[R8]EYWAQL[S5]AA[Nle]AA-NH2; staple 4-11)
Reply | 0.01 to 0.1 µM

----------
Items are presented alongside their recorded 6.25 uM % Lysed cells (1 h LDH).
# Tested on: SJSA-1 cells
# assay-notes: Cell lysis by peptidomimetic macrocycles (LDH release)
# Type: cell-based
# condition-label: 6.25 uM, 1 h at 37C
Where a SMILES comes first, the peptide text is derived from it. Bridges are numbered along the chain shown (N, C = ends). [ ]: non-standard residue; d: D form. Trp(6-Cl) = N[C@@H](Cc1c[nH]c2cc(Cl)ccc12)C(=O)O; R8 = C=CCCCCCC[C@@](C)(N)C(=O)O; S5 = C=CCCC[C@](C)(N)C(=O)O
Field format: number, assumed %, no unit text.

Some solved cases for reference:
- CC(=O)N[C@@H](CC(C)C)C(=O)N[C@H](C(=O)N[C@@H](Cc1ccccc1)C(=O)N[C@]1(C)CCCCCC/C=C/CCC[C@@](C)(C(=O)N[C@@H](CO)C(=O)N[C@@H](C)C(=O)N[C@@H](C)C(N)=O)NC(=O)[C@H](CC(C)C)NC(=O)[C@H](CCC(N)=O)NC(=O)[C@H](C)NC(=O)[C@H](Cc2c[nH]c3cc(Cl)ccc23)NC(=O)[C@H](Cc2ccc(O)cc2)NC(=O)[C@H](C)NC1=O)[C@@H](C)O [compound 99] (Ac-LTF[R8]AY[Trp(6-Cl)]AQL[S5]SAA-NH2; staple (E) 4-11): 1.5
- CC(=O)N[C@@H](CCC(=O)O)C(=O)N[C@H](C(=O)N[C@@H](Cc1ccccc1)C(=O)N[C@]1(C)CCCCCCC=CCCC[C@@](C)(C(=O)N[C@@H](C)C(=O)N[C@@H](C)C(=O)N[C@@H](C)C(=O)N[C@@H](C)C(=O)N[C@@H](C)C(=O)N[C@H](C)C(N)=O)NC(=O)[C@H](CC(C)C)NC(=O)[C@H](CCC(N)=O)NC(=O)[C@H](C)NC(=O)[C@H](Cc2c[nH]c3ccccc23)NC(=O)[C@H](Cc2ccc(O)cc2)NC(=O)[C@H](CCC(=O)O)NC1=O)[C@@H](C)O (single isomer, unassigned) [compound 341]: 0
- CC(=O)N[C@@H](CC(C)C)C(=O)N[C@H](C(=O)N[C@@H](Cc1ccccc1)C(=O)N[C@]1(C)CCCCCCC=CCCC[C@@](C)(C(=O)N[C@@H](C)C(=O)N[C@@H](C)C(=O)N[C@@H](C)C(=O)N[C@@H](C)C(=O)N[C@@H](C)C(=O)N[C@H](C)C(N)=O)NC(=O)[C@H](CC(C)C)NC(=O)[C@H](CCC(N)=O)NC(=O)[C@H](C)NC(=O)[C@H](Cc2c[nH]c3cc(Cl)ccc23)NC(=O)[C@H](Cc2ccc(O)cc2)NC(=O)[C@H](C)NC1=O)[C@@H](C)O (single isomer, unassigned) [compound 338]: 0

Ask | Notebook: pull reported 6.25 uM % Lysed cells (1 h LDH) for SJSA-1 cells, entry CC(=O)N[C@@H](CC(C)C)C(=O)N[C@H](C(=O)N[C@@H](Cc1ccccc1)C(=O)N[C@]1(C)CCCCCCC=CCCC[C@@](C)(C(=O)N[C@@H](CO)C(=O)N[C@@H](Cc2c[nH]c3ccccc23)C(=O)N[C@@H](C)C(N)=O)NC(=O)[C@H](CC(C)C)NC(=O)[C@H](CCC(N)=O)NC(=O)[C@H](C)NC(=O)[C@H](Cc2c[nH]c3ccccc23)NC(=O)[C@H](Cc2ccc(O)cc2)NC(=O)[C@H](C)NC1=O)[C@@H](C)O (single isomer, unassigned) [compound 120]
Reply | 0
